Listed below: Photosensitizing index (PI) T24 values for each entry.
Tested on: T24 bladder cancer cells
Test: Cell viability assay (MTT), dark and blue light
Assay type: cell-based, Human
Conditions: dark vs blue light 458 nm

compoundString | Photosensitizing index (PI) T24
COC(=O)c1ccc2[n+](c1)[Ir-3]13([c]4ccccc4-2)([c]2ccccc2-c2ccc(C(=O)OC)c[n+]21)[c]1n(CCCNC(=O)c2ccccc2SC/C=C(\C)CC/C=C(\C)CCC=C(C)C)cc[n+]1-c1cccc[n+]13.F[P-](F)(F)(F)(F)F | 8.6
F[P-](F)(F)(F)(F)F.O=C(CCCC[C@@H]1SC[C@@H]2NC(=O)N[C@@H]21)NCCCn1cc[n+]2[c]1[Ir-3]13([c]4ccccc4-c4c5ccccc5cc[n+]41)([c]1ccccc1-c1c4ccccc4cc[n+]13)[n+]1ccccc1-2 | 24.0
COC(=O)c1ccc2[c](c1)[Ir-3]13([c]4cc(C(=O)OC)ccc4-c4cccc[n+]41)([c]1n(CCCNC(=O)CCCC[C@@H]4SC[C@@H]5NC(=O)N[C@@H]54)cc[n+]1-c1cccc[n+]13)[n+]1ccccc1-2.F[P-](F)(F)(F)(F)F | 1.1
F[P-](F)(F)(F)(F)F.O=C(CCCC[C@@H]1SC[C@@H]2NC(=O)N[C@@H]21)NCCCn1cc[n+]2[c]1[Ir-3]13([c]4ccccc4-c4sc5ccccc5[n+]41)([c]1ccccc1-c1sc4ccccc4[n+]13)[n+]1ccccc1-2 | 19.3
COC(=O)c1ccc2[n+](c1)[Ir-3]13([c]4ccccc4-2)([c]2ccccc2-c2ccc(C(=O)OC)c[n+]21)[c]1n(CCCNC(=O)CCCC[C@@H]2SC[C@@H]4NC(=O)N[C@@H]42)cc[n+]1-c1cccc[n+]13.F[P-](F)(F)(F)(F)F | 17.2

---

Tested on: PC-3 prostate cancer cells (PSMA-negative)
Assay: Cell viability assay (MTT), dark and blue light
Assay type: cell-based, Human
Conditions: PC3, dark; read-out: GI50

compound | targetOrSystem | unitAbbrev | comparisonSymbol | GI50
F[P-](F)(F)(F)(F)F.O=C(NCCCn1cc[n+]2[c]1[Ir-3]13([c]4ccccc4-c4sc5ccccc5[n+]41)([c]1ccccc1-c1sc4ccccc4[n+]13)[n+]1ccccc1-2)[c-]1cccc1.[Fe+2].c1cc[cH-]c1 [IV-k] | PC-3 prostate cancer cells (PSMA-negative) | µM | = | 1.1
F[P-](F)(F)(F)(F)F.O=C(NCCCn1cc[n+]2[c]1[Ir-3]13([c]4c(sc5ccccc45)-c4cccc[n+]41)([c]1c(sc4ccccc14)-c1cccc[n+]13)[n+]1ccccc1-2)[c-]1cccc1.[Fe+2].c1cc[cH-]c1 [IV-j] | PC-3 prostate cancer cells (PSMA-negative) | µM | = | 7.3
F[P-](F)(F)(F)(F)F.O=C(NCCCn1cc[n+]2[c]1[Ir-3]13([c]4ccccc4-c4ccc5ccccc5[n+]41)([c]1ccccc1-c1ccc4ccccc4[n+]13)[n+]1ccccc1-2)[c-]1cccc1.[Fe+2].c1cc[cH-]c1 [IV-g] | PC-3 prostate cancer cells (PSMA-negative) | µM | = | 1.5
COC(=O)c1cccc2[c]1[Ir-3]13([c]4c(C(=O)OC)cccc4-c4cccc[n+]41)([c]1n(CCCNC(=O)[c-]4cccc4)cc[n+]1-c1cccc[n+]13)[n+]1ccccc1-2.F[P-](F)(F)(F)(F)F.[Fe+2].c1cc[cH-]c1 [IV-d] | PC-3 prostate cancer cells (PSMA-negative) | µM | = | 21.6
F[P-](F)(F)(F)(F)F.O=C(O)CC[C@H](NC(=O)N[C@@H](CCCCNC(=O)CCn1cc[n+]2[c]1[Ir-3]13([c]4ccccc4-c4c5ccccc5cc[n+]41)([c]1ccccc1-c1c4ccccc4cc[n+]13)[n+]1ccccc1-2)C(=O)O)C(=O)O [III-h] | PC-3 prostate cancer cells (PSMA-negative) | µM | = | 21.2
F[P-](F)(F)(F)(F)F.O=C(NCCCn1cc[n+]2[c]1[Ir-3]13([c]4ccccc4-c4c5ccccc5cc[n+]41)([c]1ccccc1-c1c4ccccc4cc[n+]13)[n+]1ccccc1-2)[c-]1cccc1.[Fe+2].c1cc[cH-]c1 [IV-h] | PC-3 prostate cancer cells (PSMA-negative) | µM | = | 1.3
COC(=O)c1cccc2[c]1[Ir-3]13([c]4c(C(=O)OC)cccc4-c4cccc[n+]41)([c]1n(CCC(=O)NCCCC[C@H](NC(=O)N[C@@H](CCC(=O)O)C(=O)O)C(=O)O)cc[n+]1-c1cccc[n+]13)[n+]1ccccc1-2.F[P-](F)(F)(F)(F)F [III-d] | PC-3 prostate cancer cells (PSMA-negative) | µM | > | 100
F[P-](F)(F)(F)(F)F.O=C(O)CC[C@H](NC(=O)N[C@@H](CCCCNC(=O)CCn1cc[n+]2[c]1[Ir-3]13([c]4c(sc5ccccc45)-c4cccc[n+]41)([c]1c(sc4ccccc14)-c1cccc[n+]13)[n+]1ccccc1-2)C(=O)O)C(=O)O [III-j] | PC-3 prostate cancer cells (PSMA-negative) | µM | = | 58.2
F[P-](F)(F)(F)(F)F.O=C(O)CC[C@H](NC(=O)N[C@@H](CCCCNC(=O)CCn1cc[n+]2[c]1[Ir-3]13([c]4ccccc4-c4ccc5ccccc5[n+]41)([c]1ccccc1-c1ccc4ccccc4[n+]13)[n+]1ccccc1-2)C(=O)O)C(=O)O [III-g] | PC-3 prostate cancer cells (PSMA-negative) | µM | > | 100
Cc1ccc2[c](c1)[Ir-3]13([c]4cc(C)ccc4-c4cccc[n+]41)([c]1n(CCC(=O)NCCCC[C@H](NC(=O)N[C@@H](CCC(=O)O)C(=O)O)C(=O)O)cc[n+]1-c1cccc[n+]13)[n+]1ccccc1-2.F[P-](F)(F)(F)(F)F [III-b] | PC-3 prostate cancer cells (PSMA-negative) | µM | > | 100

---

System: PC-3 prostate cancer cells (PSMA-negative)
Assay: Cell viability assay (MTT), dark and blue light
Format: cell-based, Human
Settings: blue light 458 nm
Listed below: SI (vs NIH-3T3) PC-3 Blue values for each entry.

compoundString | SI (vs NIH-3T3) PC-3 Blue
F[P-](F)(F)(F)(F)F.O=C(O)CC[C@H](NC(=O)N[C@@H](CCCCNC(=O)CCn1cc[n+]2[c]1[Ir-3]13([c]4ccccc4-c4sc5ccccc5[n+]41)([c]1ccccc1-c1sc4ccccc4[n+]13)[n+]1ccccc1-2)C(=O)O)C(=O)O | 14.3
COC(=O)c1cccc2[c]1[Ir-3]13([c]4c(C(=O)OC)cccc4-c4cccc[n+]41)([c]1n(CCC(=O)NCCCC[C@H](NC(=O)N[C@@H](CCC(=O)O)C(=O)O)C(=O)O)cc[n+]1-c1cccc[n+]13)[n+]1ccccc1-2.F[P-](F)(F)(F)(F)F | 1.0
Cc1ccc2[c](c1)[Ir-3]13([c]4cc(C)ccc4-c4cccc[n+]41)([c]1n(CCCNC(=O)[c-]4cccc4)cc[n+]1-c1cccc[n+]13)[n+]1ccccc1-2.F[P-](F)(F)(F)(F)F.[Fe+2].c1cc[cH-]c1 | 33.8
F[P-](F)(F)(F)(F)F.O=C(O)CC[C@H](NC(=O)N[C@@H](CCCCNC(=O)CCn1cc[n+]2[c]1[Ir-3]13([c]4ccccc4-c4c5ccccc5cc[n+]41)([c]1ccccc1-c1c4ccccc4cc[n+]13)[n+]1ccccc1-2)C(=O)O)C(=O)O | 28.0

---

Listed below: GI50 values for each entry.
Tested on: T24 bladder cancer cells
Assay: Cell viability assay (MTT), dark and blue light
Type: cell-based, Human
Details: in the dark, 72 h; read-out: GI50 T24 Dark
experimentalReadout: GI50 (µM)

compoundString | numericResult
COC(=O)c1cccc2[c]1[Ir-3]13([c]4c(C(=O)OC)cccc4-c4cccc[n+]41)([c]1n(CCCNC(=O)CCCC[C@@H]4SC[C@@H]5NC(=O)N[C@@H]54)cc[n+]1-c1cccc[n+]13)[n+]1ccccc1-2.F[P-](F)(F)(F)(F)F | 26.3
F[P-](F)(F)(F)(F)F.O=C(CCCC[C@@H]1SC[C@@H]2NC(=O)N[C@@H]21)NCCCn1cc[n+]2[c]1[Ir-3]13([c]4ccccc4-c4ccc5ccccc5[n+]41)([c]1ccccc1-c1ccc4ccccc4[n+]13)[n+]1ccccc1-2 | 18.6

---

Test: UV/Vis absorption spectra
Format: physicochemical
Conditions: CH2Cl2 or CH2Cl2/MeOH (1:1), room temperature
experimentalReadout: maximum absorption, lowest-lying bands in the visible region over 360 nm

compoundString | result
F[P-](F)(F)(F)(F)F.O=C(NCCCn1cc[n+]2[c]1[Ir-3]13([c]4ccccc4-c4cccc[n+]41)([c]1ccccc1-c1cccc[n+]13)[n+]1ccccc1-2)[c-]1cccc1.[Fe+2].c1cc[cH-]c1 | around 380 nm
COC(=O)c1cccc2[c]1[Ir-3]13([c]4c(C(=O)OC)cccc4-c4cccc[n+]41)([c]1n(CCC(=O)NCCCC[C@H](NC(=O)N[C@@H](CCC(=O)O)C(=O)O)C(=O)O)cc[n+]1-c1cccc[n+]13)[n+]1ccccc1-2.F[P-](F)(F)(F)(F)F | around 370 nm
CC(C)=CCC/C(C)=C/CC/C(C)=C/CSc1ccccc1C(=O)NCCCn1cc[n+]2[c]1[Ir-3]13([c]4ccccc4-c4cccc[n+]41)([c]1ccccc1-c1cccc[n+]13)[n+]1ccccc1-2.F[P-](F)(F)(F)(F)F | around 380 nm
COC(=O)c1cccc2[c]1[Ir-3]13([c]4c(C(=O)OC)cccc4-c4cccc[n+]41)([c]1n(CCCNC(=O)CCCC[C@@H]4SC[C@@H]5NC(=O)N[C@@H]54)cc[n+]1-c1cccc[n+]13)[n+]1ccccc1-2.F[P-](F)(F)(F)(F)F | around 370 nm
Cc1ccc2[c](c1)[Ir-3]13([c]4cc(C)ccc4-c4cccc[n+]41)([c]1n(CCCNC(=O)[c-]4cccc4)cc[n+]1-c1cccc[n+]13)[n+]1ccccc1-2.F[P-](F)(F)(F)(F)F.[Fe+2].c1cc[cH-]c1 | around 380 nm
COC(=O)c1cccc2[c]1[Ir-3]13([c]4c(C(=O)OC)cccc4-c4cccc[n+]41)([c]1n(CCCNC(=O)c4ccccc4SC/C=C(\C)CC/C=C(\C)CCC=C(C)C)cc[n+]1-c1cccc[n+]13)[n+]1ccccc1-2.F[P-](F)(F)(F)(F)F | around 370 nm
Cc1ccc2[c](c1)[Ir-3]13([c]4cc(C)ccc4-c4cccc[n+]41)([c]1n(CCC(=O)NCCCC[C@H](NC(=O)N[C@@H](CCC(=O)O)C(=O)O)C(=O)O)cc[n+]1-c1cccc[n+]13)[n+]1ccccc1-2.F[P-](F)(F)(F)(F)F | around 380 nm
Cc1ccc2[c](c1)[Ir-3]13([c]4cc(C)ccc4-c4cccc[n+]41)([c]1n(CCCNC(=O)CCCC[C@@H]4SC[C@@H]5NC(=O)N[C@@H]54)cc[n+]1-c1cccc[n+]13)[n+]1ccccc1-2.F[P-](F)(F)(F)(F)F | around 380 nm
COC(=O)c1cccc2[c]1[Ir-3]13([c]4c(C(=O)OC)cccc4-c4cccc[n+]41)([c]1n(CCCNC(=O)[c-]4cccc4)cc[n+]1-c1cccc[n+]13)[n+]1ccccc1-2.F[P-](F)(F)(F)(F)F.[Fe+2].c1cc[cH-]c1 | around 370 nm
CC(C)=CCC/C(C)=C/CC/C(C)=C/CSc1ccccc1C(=O)NCCCn1cc[n+]2[c]1[Ir-3]13([c]4cc(C)ccc4-c4cccc[n+]41)([c]1cc(C)ccc1-c1cccc[n+]13)[n+]1ccccc1-2.F[P-](F)(F)(F)(F)F | around 380 nm
